Listed sequences paired with reported apparent KD of MS2 coat protein
System: MS2 coat protein
protocol_summary: apparent KD of MS2 coat protein; higher = weaker reporter binding
stated_conditions: Eterna round: R107; input ligand: tryptophan 2.4 mM
All answers are understood in nM, so give the number only.

Consider the worked cases shown below.
[[record]]
ordered_residues = "UCGCUCGCCGUAAGGCGAGCGAGUUGCGAUACCAGCCCGGAAACGGGCCCUUGGCAGCGCACAUGAGGAUCACCCAUGUCAUGUU [#1 Exclusion - Theophylline A Attempt #5 (HarryS)]"
observed_property = "apparent KD of MS2 coat protein"
unit_descriptor = "nM"
observed_measurement = 19.7

[[record]]
ordered_residues = "AACAUGAGGAUCACCCAUGUCCCUCCCUCCCGAGGACCGGUACGGCCGCCACUCGCCCUCCCUCCCUAAGAAAGAAAGAAGAAGA [Same State - Trypopjan A]"
observed_property = "apparent KD of MS2 coat protein"
unit_descriptor = "nM"
observed_measurement = 32.1

[[record]]
ordered_residues = "GAGCUGAUGUAGGCCGGAUAUCCGGGAGAUACCAGUACAGAAAUGUACCCUUGGCAGCUCUUUCCUACAUGAGGAUCACCCAUGU [Ex Theophylline A 28]"
observed_property = "apparent KD of MS2 coat protein"
unit_descriptor = "nM"
observed_measurement = 17.8


Which apparent KD of MS2 coat protein is reported with MS2 coat protein for this entry: AGUCUUAAAGGAAGGAGCGCAGUCAUAACAUGAGGAUCACCCAUGUCGAUGUGAGGGUCAUUGCAGGUAGGUCGCCUUACUAAGA [Same State - Arginine B (Freestyle 5)] ?
40.6

Which apparent KD of MS2 coat protein is reported with MS2 coat protein for this entry: UGCAAAUGAUGAGAUACCAGUUCAGUUAAAUACAUGAGGAUCACCCAUGUCAGGGAACUCAACCCUUGGCAGCUCGAUGCACUCA [theeternabot_sameState_MS2_Theo_B_43] ?
59

----------
Test system: K4 kissing-loop RNA reporter
protocol_summary: apparent KD of K4 kissing-loop reporter; higher = weaker reporter binding
stated_conditions: Eterna round: R107; input ligand: tryptophan 2.4 mM
Classification field: enter met for apparent KD of K4 kissing-loop reporter values not below 200 nM, not met for values below it.

Below, 3 sequences whose answers are already recorded.
[[record]]
ordered_residues = "GUAUCGCUAGGAGGAUAUUUCAAAUAAUAAAUAAAUGGUUAUACGGAGUGAUGUUCCGAUUUACGGAAAGAAGGCCUAGUGAUAC [FMN B 3]"
category = "not met"

[[record]]
ordered_residues = "GCCGUACGCAUGGAUACCAGUCUUUCACGACUGGGCAUGGAGUGAUGUUUCGUGAUGCUAGACCCUUGGCAGCCAUGCGUACGGC"
category = "not met"

[[record]]
ordered_residues = "GACGGGCAGUGAUGUUGCCGGUCUCUUGGACGAGGACCGGUACGGCCGCCACUCGAUCUGAUGCGGGAAUUGCAUCUUUUAAUAA [Raorbirabe]"
category = "met"


Turning now to a further record.
Does the sequence `UUCUAGCCGAAAGGCUAGUCGGCUUCAGAUACCAGUCGCGAAAGCGACCCUUGGCAGCUGUGUAGUGAUGUUGCAAAGAAAGCCG` have recorded apparent KD of K4 kissing-loop reporter that is 200 nM or more?
met

----------
Test system: K4 kissing-loop RNA reporter;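 note: bound reporter read as fluorescence of individual clusters on recovered sequencing chips by microscopy, with normalized cluster intensities fitted with a binding model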
protocol_summary: apparent KD of K4 kissing-loop reporter; higher = weaker reporter binding
stated_conditions: Eterna round: R107; input ligand: theophylline 20 uM
observed_property: apparent KD of K4 kissing-loop reporter (nM)
All answers are understood in nM, so give the number only.

Consider the worked cases shown below.
[[record]]
ordered_residues = "CAACCGUAACACGAUACCAGCCUAGAAGCCAGUGAUGUUGGCCUUUUUUCGGAAAUGAAAGGCCCUUGGCAGCGUGGAUGAACUG [Dibibiquus]"
unit_descriptor = "nM"
observed_measurement = 462

[[record]]
ordered_residues = "UUCUAGCCGAAAGGCUAGUCGGCUUCAGAUACCAGUCGCGAAAGCGACCCUUGGCAGCUGUGUAGUGAUGUUGCAAAGAAAGCCG"
unit_descriptor = "nM"
observed_measurement = 262

[[record]]
ordered_residues = "UGAUAGGACAGAAGGAGCGGUAGUGAUGUUACCAAAAGAAUAAGGUGUCAAAAGACACCCUACCAGGUAGGUCGCUGUCCUAUCU"
unit_descriptor = "nM"
observed_measurement = 220

[[record]]
ordered_residues = "UGGGUGUAGUGAUGUUAUAUAGAGAGUGAUACCAGCGUAGAGAGAUGCCCUUGGCAGCAUAGAAGAGUAUCAUUGGAGGAGGAGG [ExTheophyl.Az]"
unit_descriptor = "nM"
observed_measurement = 730

[[record]]
ordered_residues = "UGACAUUGCUCAGAUACCAGACCUGAGGAUCACCCAGGUGCCAAAACGUACUAAAUAAAGGUCCCUUGGCAGCUGAGCAAUGUCU [TheoBX 13]"
unit_descriptor = "nM"
observed_measurement = 101


Could you now consider this next sequence?
Given the sequence ACCCUACUCGGGCGGCUAUACAGUUAAGCUAAGGAUAUGUAUUCGUACAGAAGGUAGAAGAAGCCGAGUGAUGUUCGACACGCCC [theeternabot_sameState_KL_FMN_A_24] , what is its reported apparent KD of K4 kissing-loop reporter?
293

----------
System: MS2 coat protein
protocol_summary: apparent KD of MS2 coat protein; designed switch direction (-1 OFF switch, 1 ON switch): 1; higher = weaker reporter binding
stated_conditions: input ligand: FMN 200 uM
Classification field: enter true for apparent KD of MS2 coat protein values not below 30 nM, false for values below it.

Does the sequence CUACGAGCGCCACAGGAUAUACUGAGACUCACAUGAGGAUCACCCAUGUCCAAUUCUCCCAAAUAGUAGAAGGGUGACGCGCUCG [Maenve] (Eterna round: R96, puzzle: Same State 2) have recorded apparent KD of MS2 coat protein that is 30 nM or more?
true

Does the sequence CUGCUCGUGUGAGGAUAUGCCGCCGUUUCGGCUGCAGAAGGUGCUACGUAACAUGAGGAUCACCCAUGUCUCUGUUGUUUCGUU [salish99_SSNG1_r04_949] (Eterna round: R96, puzzle: Same State NG 1) have recorded apparent KD of MS2 coat protein that is 30 nM or more?
true

Does the sequence GCGAGCGUACUUGCAGACAUGAGGAUCACCCAUGUAACUGGGUAGGAUAUGGUACCGUUUCGGUACCAGAAGGACUUAUGAAAG [JL SSNG3 1.50] (Eterna round: R96, puzzle: Same State NG 3) have recorded apparent KD of MS2 coat protein that is 30 nM or more?
true

Does the sequence GAGUAGUUGGGAGGAUAUGCAUUGUUAUAGAAUGCAGAAGGUUUUAACAUGAGGAUCACCCAUGUAGGACUAUUCCUGUGUAUC [Parity 71 - Jieux - Same State NG 1] (Eterna round: R96, puzzle: Same State NG 1) have recorded apparent KD of MS2 coat protein that is 30 nM or more?
false

Does the sequence AUGCCAAAGCGAGGAUAUGGAGCCUUAUUGGCUCCAGAAGGUGUGACAUGAGGAUCACCCAUGUGGCAGUGGUCUAAUGACCAC [Eli NG1ss - 41] (Eterna round: R96, puzzle: Same State NG 1) have recorded apparent KD of MS2 coat protein that is 30 nM or more?
true

Does the sequence GCUAGAAUAAACGCCUACAUGAGGAUCACCCAUGUAUGUAGGCAGGAUAUCGUUUGCAAAGCAAACGAGAAGGGCCUUACUAGC [Mat - Same State NG 3 - JL Mod - D32] (Eterna round: R96, puzzle: Same State NG 3) have recorded apparent KD of MS2 coat protein that is 30 nM or more?
false

Does the sequence AGUAGUGUAACAUGAGGAUCACCCAUGUAAGAAUAUGUAACCUAGGAUAUGGAGGUUAUGUUUGACCAGAAGGAGGAUUGUUUA [JR_SSNG3_Sub041] (Eterna round: R96, puzzle: Same State NG 3) have recorded apparent KD of MS2 coat protein that is 30 nM or more?
false

Does the sequence AGGACGAGCACAGGAUAUCCGUGGAACAGACACGGAGAAGGGUGAAGUCAUGGAAAGAAAAGACAUGAGGAUCACCCAUGUAAA [Eszaonin] (Eterna round: R96, puzzle: Same State NG 1) have recorded apparent KD of MS2 coat protein that is 30 nM or more?
true

Does the sequence UUAAUUUGUUGAGGAUAUUAUGUCAAAAGAGAAGACAUGAGGAUCACCCAUGUGAGAAAAGGUUUUAAGAAGGCAACAUUCAUA [JR_SSNG2_Sub089] (Eterna round: R96, puzzle: Same State NG 2) have recorded apparent KD of MS2 coat protein that is 30 nM or more?
true

Does the sequence GCCGCAAGGGCAGGAUAUGGGUCCAGAGUGCAAAUGCACUCCGGUACAUGAGGAUCACCCAUGUCCCAGAAGGGCCCAAGCGGC [Bilaatdi] (Eterna round: R96, puzzle: Same State NG 2) have recorded apparent KD of MS2 coat protein that is 30 nM or more?
false

Does the sequence GUAGCAUACCGAGGAUAUUCAUAUAAUAAUAACAUGAGGAUCACCCAUGUAAGGCGAAAGCCUUGGGAGAAGGCGGAAUGCUAC [Xeonanis - 20 Mod60] (Eterna round: R96, puzzle: Same State NG 2) have recorded apparent KD of MS2 coat protein that is 30 nM or more?
false

Does the sequence GCCAACUUAUGAGGAUAUGGCACCUUAUUGGUGCCAGAAGGCAUGUGAAUUCACAUGAGGAUCACCCAUGUAUUAUAGUUGGCA [Fiskers NG1ss - 20] (Eterna round: R96, puzzle: Same State NG 1) have recorded apparent KD of MS2 coat protein that is 30 nM or more?
true
